This collection of values is drawn from patent US9688764B2.

biological target: T1, hPRLR.mFc (soluble dimeric human PRLR) (Homo sapiens, UniProt P16471); experiment: Surface plasmon resonance (Biacore T200), mAb-capture format; type: binding; conditions: 37° C., antibody-capture format, analyte hPRLR.mFc
T1 construct: dimeric (hPRLR.mFc)
T1 sequence (P16471 with tags, fused parts or gaps): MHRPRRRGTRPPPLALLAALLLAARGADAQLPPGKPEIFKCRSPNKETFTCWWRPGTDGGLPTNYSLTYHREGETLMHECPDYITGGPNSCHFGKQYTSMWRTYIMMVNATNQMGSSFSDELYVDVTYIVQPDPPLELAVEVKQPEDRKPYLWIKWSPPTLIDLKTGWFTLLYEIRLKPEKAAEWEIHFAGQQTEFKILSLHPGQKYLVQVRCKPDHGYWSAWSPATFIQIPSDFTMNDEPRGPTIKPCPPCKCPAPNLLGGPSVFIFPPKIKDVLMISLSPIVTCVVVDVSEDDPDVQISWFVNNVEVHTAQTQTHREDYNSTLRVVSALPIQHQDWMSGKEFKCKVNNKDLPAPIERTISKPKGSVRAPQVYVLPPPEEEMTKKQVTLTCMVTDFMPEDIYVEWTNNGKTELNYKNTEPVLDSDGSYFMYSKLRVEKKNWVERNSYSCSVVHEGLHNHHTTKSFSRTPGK
Items are presented alongside their recorded T½.

molecule	T½
H1H6976N: human IgG1 Fc form of H2M6976N; anti-PRLR; HCVR/LCVR SEQ ID NOs 386/394 (antibody, V domains shown, human IgG1 Fc) VH: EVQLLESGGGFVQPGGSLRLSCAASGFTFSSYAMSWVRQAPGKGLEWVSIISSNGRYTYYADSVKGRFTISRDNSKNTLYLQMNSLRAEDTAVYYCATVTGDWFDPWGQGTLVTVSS VL: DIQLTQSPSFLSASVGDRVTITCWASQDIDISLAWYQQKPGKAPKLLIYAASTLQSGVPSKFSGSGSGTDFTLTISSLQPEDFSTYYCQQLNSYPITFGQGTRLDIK	1.38 h
H1H6960N: human IgG1 Fc form of H2M6960N; anti-PRLR; HCVR/LCVR SEQ ID NOs 322/330 (antibody, V domains shown, human IgG1 Fc) VH: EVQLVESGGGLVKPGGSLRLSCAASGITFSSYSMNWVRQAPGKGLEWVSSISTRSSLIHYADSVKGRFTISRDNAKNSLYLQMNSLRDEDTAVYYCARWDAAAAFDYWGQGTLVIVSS VL: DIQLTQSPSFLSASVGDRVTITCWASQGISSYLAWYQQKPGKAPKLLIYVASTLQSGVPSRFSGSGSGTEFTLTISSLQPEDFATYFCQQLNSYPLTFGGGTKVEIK	1.31 h
H1H6765P: anti-PRLR antibody, human IgG1 Fc; HCVR/LCVR SEQ ID NOs 18/26 (antibody, V domains shown, human IgG1 Fc) VH: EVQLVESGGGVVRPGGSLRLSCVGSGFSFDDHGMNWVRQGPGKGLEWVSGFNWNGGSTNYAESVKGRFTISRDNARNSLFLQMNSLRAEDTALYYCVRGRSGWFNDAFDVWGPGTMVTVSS VL: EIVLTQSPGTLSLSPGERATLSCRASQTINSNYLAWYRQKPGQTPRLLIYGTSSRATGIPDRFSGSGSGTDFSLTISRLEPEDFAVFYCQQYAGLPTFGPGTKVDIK	1.87 h
H1H6797P: anti-PRLR antibody, human IgG1 Fc; HCVR/LCVR SEQ ID NOs 178/186 (antibody, V domains shown, human IgG1 Fc) VH: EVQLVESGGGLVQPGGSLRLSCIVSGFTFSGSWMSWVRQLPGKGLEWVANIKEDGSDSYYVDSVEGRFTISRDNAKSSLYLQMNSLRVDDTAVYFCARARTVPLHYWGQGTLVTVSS VL: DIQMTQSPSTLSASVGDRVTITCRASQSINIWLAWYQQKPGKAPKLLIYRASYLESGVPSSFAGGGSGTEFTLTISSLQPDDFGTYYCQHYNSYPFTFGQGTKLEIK	1.55 h
